# protocolDetails: Prodrug solubility in capmul
# Assay type: ADME
measurementName: solubility

Entry under test: `CCOc1cc(NC(=O)C2(NC(=O)c3ccc4c(C5CCCC5)c(-c5ncc(Cl)cn5)n(C)c4c3)CCC2)ccc1/C=C/C(=O)OCC(=O)N(C)C(C)C` . Its solubility was < 200 mg/mL

Entry under test: `CCOc1cc(NC(=O)C2(NC(=O)c3ccc4c(C5CCCC5)c(-c5ncc(Cl)cn5)n(C)c4c3)CCC2)ccc1/C=C/C(=O)OCCN(C)C` . Its solubility was < 100 mg/mL

Entry under test: `CCOc1cc(NC(=O)C2(NC(=O)c3ccc4c(C5CCCC5)c(-c5ncc(Cl)cn5)n(C)c4c3)CCC2)ccc1/C=C/C(=O)OCCN1CCOCC1` . Its solubility was < 30 mg/mL

Entry under test: `CCOc1cc(NC(=O)C2(NC(=O)c3ccc4c(C5CCCC5)c(-c5ncc(Cl)cn5)n(C)c4c3)CCC2)ccc1/C=C/C(=O)OCCOCCOC` . Its solubility was < 60 mg/mL

Entry under test: `CCOc1cc(NC(=O)C2(NC(=O)c3ccc4c(C5CCCC5)c(-c5ncc(Cl)cn5)n(C)c4c3)CCC2)ccc1/C=C/C(=O)OCC(N)=O` . Its solubility was < 200 mg/mL

Entry under test: `CCCN(C)C(=O)COC(=O)/C=C/c1ccc(NC(=O)C2(NC(=O)c3ccc4c(C5CCCC5)c(-c5ncc(Cl)cn5)n(C)c4c3)CCC2)cc1OCC` . Its solubility was < 200 mg/mL

Entry under test: `CCOc1cc(NC(=O)C2(NC(=O)c3ccc4c(C5CCCC5)c(-c5ncc(Cl)cn5)n(C)c4c3)CCC2)ccc1/C=C/C(=O)OCC(=O)N1CCN(C)CC1` . Its solubility was < 100 mg/mL

---

Field: t1/2. Provide a value for each of the molecules that follow.
# protocolDetails: Prodrug conversion in simulated intestinal fluid assessed as half life
# Type: ADME
# setupConditions: simulated gi fluid
Give just the numeric value; h need not be written.

Entry under test: `CCOc1cc(NC(=O)C2(NC(=O)c3ccc4c(C5CCCC5)c(-c5ncc(Cl)cn5)n(C)c4c3)CCC2)ccc1/C=C/C(=O)OCC(=O)N1CCOCC1` . Its t1/2 was 3.17

Entry under test: `CCOc1cc(NC(=O)C2(NC(=O)c3ccc4c(C5CCCC5)c(-c5ncc(Cl)cn5)n(C)c4c3)CCC2)ccc1/C=C/C(=O)OCC(=O)OCc1ccccc1` . Its t1/2 was 1.63

Entry under test: `CCOc1cc(NC(=O)C2(NC(=O)c3ccc4c(C5CCCC5)c(-c5ncc(Cl)cn5)n(C)c4c3)CCC2)ccc1/C=C/C(=O)N[C@@H](CCC(=O)O)C(N)=O` . Its t1/2 was 4.23

Entry under test: `CCOc1cc(NC(=O)C2(NC(=O)c3ccc4c(C5CCCC5)c(-c5ncc(Cl)cn5)n(C)c4c3)CCC2)ccc1/C=C/C(=O)OC` . Its t1/2 was 6.87

Entry under test: `CCOc1cc(NC(=O)C2(NC(=O)c3ccc4c(C5CCCC5)c(-c5ncc(Cl)cn5)n(C)c4c3)CCC2)ccc1/C=C/C(=O)OCCN1CCOCC1` . Its t1/2 was 4.28

---

# Tested on: Rattus norvegicus
# protocolDetails: AUC in rat plasma assessed as (E)-3-(4-(1-(2-(5-chloropyrimidin-2-yl)-3-cyclopentyl-1-methyl-1H-indole-6-carboxamido)cyclobutanecarboxamido)-2-ethoxyphenyl)acrylic acid at 10 mg/kg, po using 10.6% PEG400, 5.4% Cremophor EL, 2.6% Labrasol, 1.4% Capmul MCM in water (80%) vehicle
# Type: ADME, organism-based
# Parameters: dose 10 mg/kg, route oral
# setupConditions: in vivo
Field: AUC. Provide a value for each of the compounds that follow.
Give just the numeric value; µM·h need not be written.

Entry under test: `CCOc1cc(NC(=O)C2(NC(=O)c3ccc4c(C5CCCC5)c(-c5ncc(Cl)cn5)n(C)c4c3)CCC2)ccc1/C=C/C(=O)O` . Its AUC was 7.5

Entry under test: `CCOc1cc(NC(=O)C2(NC(=O)c3ccc4c(C5CCCC5)c(-c5ncc(Cl)cn5)n(C)c4c3)CCC2)ccc1/C=C/C(=O)OCCNN1CCCC1` . Its AUC was 25.6

Entry under test: `CCOc1cc(NC(=O)C2(NC(=O)c3ccc4c(C5CCCC5)c(-c5ncc(Cl)cn5)n(C)c4c3)CCC2)ccc1/C=C/C(=O)OCOC(=O)C(C)(C)C` . Its AUC was 19.6

Entry under test: `CCOc1cc(NC(=O)C2(NC(=O)c3ccc4c(C5CCCC5)c(-c5ncc(Cl)cn5)n(C)c4c3)CCC2)ccc1/C=C/C(=O)OCCN1CCN(C)CC1` . Its AUC was 7.9

Entry under test: `CCOc1cc(NC(=O)C2(NC(=O)c3ccc4c(C5CCCC5)c(-c5ncc(Cl)cn5)n(C)c4c3)CCC2)ccc1/C=C/C(=O)OCCOCCOC` . Its AUC was 23.1

Entry under test: `CCOc1cc(NC(=O)C2(NC(=O)c3ccc4c(C5CCCC5)c(-c5ncc(Cl)cn5)n(C)c4c3)CCC2)ccc1/C=C/C(=O)OCCN1CCOCC1` . Its AUC was 35.2

Entry under test: `CCOc1cc(NC(=O)C2(NC(=O)c3ccc4c(C5CCCC5)c(-c5ncc(Cl)cn5)n(C)c4c3)CCC2)ccc1/C=C/C(=O)OCC(=O)N1CCOCC1` . Its AUC was 19.3

Entry under test: `CCOc1cc(NC(=O)C2(NC(=O)c3ccc4c(C5CCCC5)c(-c5ncc(Cl)cn5)n(C)c4c3)CCC2)ccc1/C=C/C(=O)OCC(N)=O` . Its AUC was 16.7

Entry under test: `CCOc1cc(NC(=O)C2(NC(=O)c3ccc4c(C5CCCC5)c(-c5ncc(Cl)cn5)n(C)c4c3)CCC2)ccc1/C=C/C(=O)OCCN(C)C` . Its AUC was 10.1

Entry under test: `CCOc1cc(NC(=O)C2(NC(=O)c3ccc4c(C5CCCC5)c(-c5ncc(Cl)cn5)n(C)c4c3)CCC2)ccc1/C=C/C(=O)OCC(=O)N(C)C` . Its AUC was 38.5

Entry under test: `CCOc1cc(NC(=O)C2(NC(=O)c3ccc4c(C5CCCC5)c(-c5ncc(Cl)cn5)n(C)c4c3)CCC2)ccc1/C=C/C(=O)OC` . Its AUC was 30.7
